# tested on: Fibrinogen beta chain (Homo sapiens) (UniProt P02675)
# Sequence (P02675 whole entry, looked up): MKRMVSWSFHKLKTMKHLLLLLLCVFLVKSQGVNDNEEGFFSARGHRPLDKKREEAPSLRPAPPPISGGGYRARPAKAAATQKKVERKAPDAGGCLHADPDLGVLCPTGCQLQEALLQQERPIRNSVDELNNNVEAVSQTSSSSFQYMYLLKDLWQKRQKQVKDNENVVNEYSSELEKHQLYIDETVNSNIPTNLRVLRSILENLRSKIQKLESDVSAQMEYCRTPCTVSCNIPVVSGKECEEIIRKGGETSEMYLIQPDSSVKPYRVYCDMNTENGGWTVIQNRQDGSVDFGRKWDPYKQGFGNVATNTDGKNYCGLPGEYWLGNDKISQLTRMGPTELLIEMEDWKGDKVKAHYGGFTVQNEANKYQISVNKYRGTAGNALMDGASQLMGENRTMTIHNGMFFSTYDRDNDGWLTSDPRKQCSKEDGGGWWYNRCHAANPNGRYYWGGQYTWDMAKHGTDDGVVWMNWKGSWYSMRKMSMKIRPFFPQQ
# test description: inhibitors of Tn6 peptide binding to fibrin DD(E), late-stage follow-up, biochemical, fluorescence polarization, human fibrin, dose response (AID 1053129)
# applied conditions: FP, Tn6 cyclic peptide binding to DD(E)
Activity calls are given as the source filed them. How the calls were made is not given here.
Bench note: report the call from active, inactive

Before answering, review these 5 worked examples.
1. O=C(O)CCCNc1cc(N2CCN(C(=O)c3ccco3)CC2)c2noc3c2c1C(=O)c1ccccc1-3 = active
2. Cc1cc2cc(CNS(=O)(=O)c3ccc4ccccc4c3)ccc2n1C = inactive
3. CCn1c(CSc2n[nH]c(N)n2)nc2cc(C(=O)O)ccc21 = active
4. COc1ccc2ccccc2c1C(O)c1nccn1C (stereo not given) = inactive
5. NS(=O)(=O)c1ccc(NS(=O)(=O)c2ccc(NC(=O)c3ccc(-c4ccccc4)cc3)cc2)cc1 = active

Q. Could you check what this test reported for CN1C(=O)NC(c2ccccc2[N+](=O)[O-])C2=C1CCCC2=O (stereo not given) ?
A. inactive

Q. What do you get for Cc1cc2c(cc1S(=O)(=O)N1CCN(c3cccc(C)c3C)CC1)OCCN2C ?
A. inactive

Q. What do you get for N#CC1=C(N)Oc2ccc3ccc(O)cc3c2C1c1ccsc1 (stereo not given) ?
A. active

Q. What do you get for Cc1cc2cc(CNC(=O)c3ccc(S(=O)(=O)N4CCOCC4)cc3)ccc2n1C ?
A. inactive

Q. Record: Cc1cc(C)c(S(=O)(=O)NCCn2c(C)cc3ccccc32)c(C)c1
A. inactive
